Assay: Pharmacokinetics in serum after 20 mg/kg oral and intravenous doses
Format: in vivo, Sprague Dawley rats
Details: Sprague Dawley; rat serum, 20 mg/kg oral
measured.metric: Tmax (h)
One number for each entry, in h.

The value of Tmax measured for the compound O=C1NC(C(=O)O)/C(=C\Cc2ccccc2)O1 (stereo not shown) turned out to be 1

----------
Assay: log P from potentiometric titration
Assay type: physicochemical
Conditions: aqueous solution titrated with 0.1 M NaOH
measured.metric: logP
Numbers only.

The value of logP measured for the compound O=C1NC(C(=O)O)/C(=C\Cc2ccccc2)O1 (stereo not shown) turned out to be 0.55

----------
Assay: Pharmacokinetics in serum after 20 mg/kg oral and intravenous doses
Type: in vivo, Sprague Dawley rats
Conditions: Sprague Dawley, rat, serum, iv, 20 mg/kg, rat serum, 20 mg/kg IV; read-out: Cmax
measured.metric: Cmax (ng/mL)
One number for each entry, in ng/mL.

The value of Cmax measured for the molecule O=C1NC(C(=O)O)/C(=C\Cc2ccccc2)O1 (stereo not shown) [CDRI-85/92] turned out to be 4910

----------
Test: Urinary, fecal and biliary excretion after 20 mg/kg oral and intravenous dose
Format: in vivo, Sprague Dawley rats
Details: Sprague Dawley, rat, urine, iv, 20 mg/kg, IV 20 mg/kg, bile duct cannulated rats; read-out: Ke (excretion rate constant), urine (converted)
measured.metric: k el
# answer = value followed by unit

The value of k el measured for the compound O=C1NC(C(=O)O)/C(=C\Cc2ccccc2)O1 (stereo not shown) turned out to be 1.11e-05 s⁻¹

----------
Assay: Partition coefficient (log P), 1-octanol/phosphate buffer
Type: physicochemical
Conditions: 1-octanol/20 mM phosphate buffer; octanol partition, 20 mM phosphate buffer pH 7.4, 25°C
measured.metric: logP
Give bare numbers.

The value of logP measured for the molecule O=C1NC(C(=O)O)/C(=C\Cc2ccccc2)O1 (stereo not shown) [CDRI-85/92] turned out to be 0.53

----------
Test: Urinary, fecal and biliary excretion after 20 mg/kg oral and intravenous dose
Format: in vivo, Sprague Dawley rats
Details: Sprague Dawley, rat, feces, po, 20 mg/kg, oral 20 mg/kg, non-cannulated rats; read-out: Ke (excretion rate constant), feces (converted)
measured.metric: k el (s⁻¹)
Numbers only, in s⁻¹.

The value of k el measured for the compound O=C1NC(C(=O)O)/C(=C\Cc2ccccc2)O1 (stereo not shown) [CDRI-85/92] turned out to be 1.94e-05

----------
Assay: Urinary, fecal and biliary excretion after 20 mg/kg oral and intravenous dose
Type: in vivo, Sprague Dawley rats
Conditions: Sprague Dawley, rat, urine, po, 20 mg/kg, oral 20 mg/kg, bile duct cannulated rats; read-out: Ke (excretion rate constant), urine (converted)
Description: Urinary, fecal and biliary excretion of CDRI-85/92 was studied in rats (n=3 per group) after a single 20 mg/kg oral and intravenous dose. Following treatment with CDRI-85/92, urine and feces samples were collected during 24 h with 12 h intervals. Urine was measured and kept in parafilm sealed tubes at −60°C till analyses. […] The amount, cumulative amount and % of the administered dose excreted via urine, bile and feces were calculated.
measured.metric: k el (s⁻¹)
Answers are plain numbers, in s⁻¹.

The value of k el measured for the compound O=C1NC(C(=O)O)/C(=C\Cc2ccccc2)O1 (stereo not shown) turned out to be 1.67e-05

----------
Experiment: Pharmacokinetics in serum after 20 mg/kg oral and intravenous doses
Type: in vivo, Sprague Dawley rats
Conditions: Sprague Dawley; rat serum, 20 mg/kg IV
measured.metric: AUC(0-inf) (ng·h/mL)
One number for each entry, in ng·h/mL.

The value of AUC(0-inf) measured for the compound O=C1NC(C(=O)O)/C(=C\Cc2ccccc2)O1 (stereo not shown) turned out to be 1250
